Values were extracted from PubChem BioAssay (NCI).

test system: MDA-MB-468 breast; test: NCI-60 one-dose screen, 48 h (100 = growth as untreated, 0 = no growth, -100 = all killed); settings: 10 µM unless noted
This is part of a sample that, as a whole, favours compounds with a hit. Of some 83,000 tested, about 20% had one in any assay.
Please mark YES if the recorded growth is equal to or greater than 90%, and NO if it falls below.

Does the reported growth for CC1(c2ccccc2Cl)NC(=O)NC1=O (centres undefined) fall at or above the 90% mark? YES

hey, is growth for this one >= 90%? CCCCCCCCNc1cc2c3c(c1)CCCN3CCC2 NO

Hello, I need to know if COc1c(Cl)cc(Cl)c2ccc(C=C3C(=O)NC(=S)NC3=O)nc12 has measured growth not below 90%. Thanks! YES

Is reported growth greater than or equal to 90% here: Nc1nc(N)c2c(n1)NC(c1ccc(C(F)(F)F)cc1)CC(c1ccc(Nc3nc(NCCO)nc(Nc4ccc(Cl)cc4)n3)cc1)=N2 (centres undefined) NO

Hello, I need to know if CCc1ccc(CNc2ccc(N3CCOCC3)c(C(=O)O)c2)cc1 has measured growth not below 90%. Thanks! YES

Could you verify whether the entry CCCCCc1cc[n+](CC(=O)c2ccc([N+](=O)[O-])cc2)cc1 shows growth of no less than 90%? NO

Textbook exercise: given the entry CCC/C=C/C=C/C(=O)N[C@@H](Cc1cc(F)cc(F)c1)C(=O)N[C@@H]1C(=O)N2CCC[C@H]2C(=O)N2CCCC[C@H]2C(=O)N[C@@H](C)C(=O)N2C[C@H](C)C[C@H]2C(=O)O[C@H]1C , state whether its growth is greater than or equal to 90%. NO
